- System: OVCAR-8 ovarian
- Protocol description: NCI tumour cell line growth inhibition, 48 h
Readout kind: TGI

molecule=Clc1ccccc1-c1nn2c(CCCCCCCCc3nnc4sc(-c5ccccc5Cl)nn34)nnc2s1 result="> 100 µM"

# query: TGI of entry O=C(Nc1ccccc1)O/N=C1/CCCC/C1=C\c1ccccc1 42.8 µM

Proceed to CC(SC(=S)N1CCCC1)C(=O)Nc1nnc(-c2ccc(Cl)cc2)o1 (stereo unspecified) > 100 µM

Proceed to NC(=O)c1csc(C2O[C@@H](COP(=O)(O)OP(=O)(O)OC[C@H]3OC(n4cnc5c(N)ncnc54)[C@H](O)[C@@H]3O)[C@H](O)[C@@H]2O)n1 (stereo partly specified) > 100 µM

Proceed to CCCCC1=C(C(=O)N2CCOCC2)C2(OCCO2)C1Cl (stereo unspecified) > 100 µM

Proceed to N#Cc1c(Cl)cccc1Oc1ccc(S(=O)(=O)/N=C(\NO)Nc2ccc(Cl)cc2)cc1 43.5 µM
